The values you see were collected from patent US20220290111A1.

- System: PipSyn1
- procedure-text: in vitro enzyme assay of amide formation from CoA-ester and amine, PipSyn1
- Format: biochemical, Piper nigrum
- assay-setup: CoA-ester 3,4-methylenedioxycinnamoyl-CoA, 100% = 2 nkat/mg PipSyn2 with piperoyl-CoA and piperidine, UV quantification
measured-attribute: relative activity, 3,4-methylenedioxycinnamoyl-CoA (%)
# unit: % | format: bare number

Qu. Given C1CCNCC1 , respond with its relative activity, 3,4-methylenedioxycinnamoyl-CoA.
Ans. 184

Qu. Given NCCCCCCCN , respond with its relative activity, 3,4-methylenedioxycinnamoyl-CoA.
Ans. 104

Qu. Given NCCc1ccc(O)c(O)c1 , respond with its relative activity, 3,4-methylenedioxycinnamoyl-CoA.
Ans. 7

Qu. Given NCC1CCNCC1 , respond with its relative activity, 3,4-methylenedioxycinnamoyl-CoA.
Ans. 6

Qu. Given C1CCNC1 , respond with its relative activity, 3,4-methylenedioxycinnamoyl-CoA.
Ans. 186

Qu. Given COc1cc(CN)ccc1O , respond with its relative activity, 3,4-methylenedioxycinnamoyl-CoA.
Ans. 10

Qu. Given CC(C)CN , respond with its relative activity, 3,4-methylenedioxycinnamoyl-CoA.
Ans. 173
